From: ChEMBL document CHEMBL5058577

Measured Population Normal (%) accompanies every entry in the list below.
Tested on: HEK-293T
test_method_notes: Multiplex assay against HEK293T
Format: toxicity, cell-based
experimental_conditions: human, 48 h, 1 µM, compound concentration 1 uM, replicate 1
Non-standard residues stand in square brackets, D forms with d. Residues, ends and D or L forms follow the SMILES beside them.
experimental_readout: Population Normal (%)

compound | number
Nc1nc(CC(=O)Nc2ccc(CCNC[C@H](O)c3ccccc3)cc2)cs1 | 98
COc1cc(OC2CCN(C(C)=O)CC2)ccc1C(=O)N1CCC(N2C(=O)OCc3ccccc32)CC1 | 96
CC(C)(C)c1ccc(CSc2cnn(C(C)(C)C)c(=O)c2Cl)cc1 | 94
CSc1nc(NC2CCCC2)c([N+](=O)[O-])c(NC2CCCC2)n1 | 96
COCCCN1CCC(NC(=O)c2cc(Cl)c(N)c3c2OCC3)CC1 [PRUCALOPRIDE] | 97
Cc1ccc(OCC(O)C(C)NC(C)C)c2c1CCC2.Cl (stereo not drawn) | 96
COc1ccc2[nH]c(I)c(CCNC(C)=O)c2c1 | 95
O=C(O)CCC/C=C\CC1C(O)CC(O)C1/C=C/C(O)COc1cccc(Cl)c1 (stereo not drawn) | 95
CCCCC[C@H](O)/C=C/[C@H]1[C@H](O)CC(=O)[C@@H]1CCCCCCC(=O)O | 97
Cl.Cl.OCCOCCN1CCN(C(c2ccccc2)c2ccc(Cl)cc2)CC1 (stereo not drawn) [HYDROXYZINE HYDROCHLORIDE] | 98
CCCCCCNC(=O)Nc1ccc(S(=O)(=O)Nc2ccc(CCNC[C@H](O)COc3ccc(O)cc3)cc2)cc1 | 96
CN1C[C@H](C(=O)N[C@]2(C)O[C@@]3(O)[C@@H]4CCCN4C(=O)[C@H](Cc4ccccc4)N3C2=O)C[C@@H]2c3cccc4[nH]cc(c34)C[C@H]21.CS(=O)(=O)O [DIHYDROERGOTAMINE MESYLATE] | 97
COc1cc2nc(N3CCN(C(=O)COc4c(OC)cccc4C(C)C)CC3)nc(N)c2cc1OC.Cl.Cl | 97
CN1CCC(C(=O)c2cccc(NC(=O)c3c(F)cc(F)cc3F)n2)CC1 | 96
CC(C)C[C@H](CO)Nc1nc(S[C@@H](C)c2ccccc2)nc2nc(N)sc12 | 98
C[C@@H]1CC(=O)Nc2cccc(-c3ccc4c(c3)c(-c3cnn(C)c3)nn4C)c2N1 | 98
Nc1nc(-c2ccco2)c2cnn(Cc3ccccc3F)c2n1 | 96
COC(c1ccccc1)(c1ccccc1)[C@H](Oc1nc(C)cc(C)n1)C(=O)O | 97
CCC(=O)OCC(=O)[C@@]1(OC(=O)CC)[C@@H](C)C[C@H]2[C@@H]3CCC4=CC(=O)C=C[C@]4(C)[C@@]3(Cl)[C@@H](O)C[C@@]21C [BECLOMETHASONE DIPROPIONATE] | 95
CC(C)C[C@@H]1NC(=O)[C@@H](C(C)C)NC(=O)[C@@H]2CCCN2C(=O)[C@@H](CC(=O)O)NC(=O)[C@@H](Cc2c[nH]c3ccccc23)NC1=O [BQ-123] (cyclo(L[dW][dD]P[dV])) | 96
Cc1cc(=O)n(C)c2cc(N3C(=O)CC[C@H](NS(=O)(=O)CC(C)C)[C@H]3c3ccc(Cl)cc3)ccc12 | 96
N[C@](CC1c2ccccc2Oc2ccccc21)(C(=O)O)[C@H]1C[C@@H]1C(=O)O | 97
Cc1sc2c(c1C)C(c1ccc(Cl)cc1)=N[C@H](CC(=O)OC(C)(C)C)c1nnc(C)n1-2 | 96
COCCn1c(C)c(C)s/c1=N\C(=O)C1C(C)(C)C1(C)C | 96
C[C@H](NC(=O)CNC(=O)c1cccc(Cl)c1)c1ccccc1 | 96
O=C(NCCNCC(O)COc1ccc(O)cc1)N1CCOCC1.O=C(NCCNCC(O)COc1ccc(O)cc1)N1CCOCC1.O=C(O)/C=C/C(=O)O (stereo not drawn) [XAMOTEROL FUMARATE] | 97
Cc1cc(O)c(-c2ccc([C@@H](C)CN(C)C)cc2)c2c1[nH]c(=O)c1sccc12 | 75
Cn1cc(C(=O)OCC2CCN(CCNS(C)(=O)=O)CC2)c2ccccc21 | 96
COc1ccc2c(c1OCc1ccccc1)C[C@@H](C(=O)O)N(C(=O)C(c1ccccc1)c1ccccc1)C2 | 97
C=CCN1C[C@H](C(=O)N(CCCN(C)C)C(=O)NCC)C[C@@H]2c3cccc4[nH]cc(c34)C[C@H]21 | 95
CN(C)C(=O)Cn1cc(-c2ccc(-c3nnc4ccccn34)cc2)cn1 | 96
OCCCNc1cc(-c2ccnc(Nc3cccc(Cl)c3)n2)ccn1 | 81
O=c1ccc2ccc(OCCCCN3CCN(c4cccc5sccc45)CC3)cc2[nH]1 | 94
